Data origin: the supplement of paper PMC9112550

system: Escherichia coli TOP10; experiment: shrunken log2 fold change of peptide-encoding DNA abundance (4.5 h post-induction vs induction); higher = less antimicrobial activity (less host growth inhibition); details: time post-induction: 4.5 h; library: site-saturation at positions 5, 18, 19, 20
Recorded Endpoint: shrunken log2 fold change
Lab note: record the figure alone, no unit after it.

Take a look at these entries with their results.
[
  {
    "Chain Sequence": "RRIRKRPPRLPRPRPRPQCLPRP",
    "shrunken log2 fold change": 0.131
  },
  {
    "Chain Sequence": "RRIRIRPPRLPRPRPRPVFVPRP",
    "shrunken log2 fold change": -0.397
  },
  {
    "Chain Sequence": "RRIRPRPPRLPRPRPRPRMMPRP",
    "shrunken log2 fold change": 0.323
  }
]

Task item: Param request: shrunken log2 fold change | system Escherichia coli TOP10 | item RRIRDRPPRLPRPRPRPHWDPRP
Reply: -0.0788

Task item: Provide shrunken log2 fold change, system Escherichia coli TOP10, entry RRIRMRPPRLPRPRPRPAWWPRP
Reply: 0.879

Task item: Lab note: record shrunken log2 fold change of RRIRPRPPRLPRPRPRPFSDPRP tested on Escherichia coli TOP10.
Reply: -0.0761

Task item: Write down the reported shrunken log2 fold change (system: Escherichia coli TOP10) of RRIRCRPPRLPRPRPRPCKTPRP;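 also: peptides expressed intracellularly from a pBAD plasmid library in pooled LB shake-flask culture, induced with 0.3% L-arabinose, DNA abundance read by NGS, three biological replicates, DESeq2 with apeglm shrinkage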
Reply: -0.0345

Task item: Enter recorded shrunken log2 fold change with Escherichia coli TOP10 for RRIRQRPPRLPRPRPRPEDRPRP here.
Reply: -0.0214
